measurement.description: self-splicing fitness, log relative to wild type (ln ratio); higher = more splicing; Tetrahymena group I intron in knt gene, E. coli kanamycin selection, DiMSum; sequences stand for … in CUCUCU…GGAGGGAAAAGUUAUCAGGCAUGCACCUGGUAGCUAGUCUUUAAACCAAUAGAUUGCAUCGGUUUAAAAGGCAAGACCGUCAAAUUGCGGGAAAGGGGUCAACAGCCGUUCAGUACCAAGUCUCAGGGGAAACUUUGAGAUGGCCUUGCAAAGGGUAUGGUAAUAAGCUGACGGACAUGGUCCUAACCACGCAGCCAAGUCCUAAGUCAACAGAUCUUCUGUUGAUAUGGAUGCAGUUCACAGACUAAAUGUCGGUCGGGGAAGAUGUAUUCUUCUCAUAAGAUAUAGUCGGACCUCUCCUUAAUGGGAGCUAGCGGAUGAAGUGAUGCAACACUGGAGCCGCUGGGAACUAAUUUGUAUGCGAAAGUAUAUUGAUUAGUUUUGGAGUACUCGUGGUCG;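 note: selection with 25 µg/mL kanamycin versus none on LB agar overnight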
conditions.used: 37 °C
Binary call on self-splicing fitness (ln): t from -0.8 upward, f beneath that.

Use the examples below as a reference point.
>>> print(df.to_string())
          residue_codes  cat
0  UCACAGCAAUAUUACGGCGC    f
1  UUGCAGCAAUAUUACGAGGU    f
2  UGCAAGCAAUAUUACGUAUG    t

IN: // inclusive: self-splicing fitness (ln) at least -0.8? input: `UUGCAGCAAUAUUACGUACC`
OUT: f

IN: Continue with `CCACAGCAAUAUUACGCCCG`
OUT: t

IN: Continue with `UUCUAGCAAUAUUACGGCUG`
OUT: f

IN: Continue with `ACAUAGCAAUAUUACGAUCU`
OUT: t

IN: Continue with `GCCUAGCAAUAUUACGUUCU`
OUT: t

IN: Continue with `AAAGAGCAAUAUUACGACAC`
OUT: f

###

measurement.description: self-splicing fitness, log relative to wild type (ln ratio); higher = more splicing; Tetrahymena group I intron in knt gene, E. coli kanamycin selection, DiMSum; sequences stand for … in CUCUCU…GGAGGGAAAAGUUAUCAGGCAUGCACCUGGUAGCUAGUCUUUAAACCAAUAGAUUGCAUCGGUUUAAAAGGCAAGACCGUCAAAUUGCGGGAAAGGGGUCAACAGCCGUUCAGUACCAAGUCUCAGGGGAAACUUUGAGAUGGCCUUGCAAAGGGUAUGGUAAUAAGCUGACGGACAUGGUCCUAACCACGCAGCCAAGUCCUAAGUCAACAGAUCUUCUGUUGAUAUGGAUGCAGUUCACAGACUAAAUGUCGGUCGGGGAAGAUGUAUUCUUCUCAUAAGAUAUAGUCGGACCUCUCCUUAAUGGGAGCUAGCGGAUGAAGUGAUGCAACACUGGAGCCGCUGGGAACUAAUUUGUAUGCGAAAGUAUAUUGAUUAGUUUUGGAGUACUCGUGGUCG
conditions.used: 30 °C
The reader will find reported self-splicing fitness (ln) values listed item by item below.
Would you mind answering with just the numeric figure?

>>> df
          residue_codes               quantity_kind  experimental_value
0  GAAUAGCAAUAUUACGGCAC  self-splicing fitness (ln)             -0.0381

IN: Which self-splicing fitness (ln) value belongs to `CCCUAGCAAUAUUACGCUUG` ?
OUT: -3.94

IN: Continue with `ACACAGCAAUAUUACGGCGU`
OUT: -0.67

IN: Continue with `AUGUAGCAAUAUUACGGUGC`
OUT: -2.55

IN: Continue with `UAUGAGCAAUAUUACGUUGC`
OUT: -2.19

IN: Continue with `CGCUAGCAAUAUUACGAUUU`
OUT: -3.41

IN: Continue with `AAGGAGCAAUAUUACGGCCA`
OUT: -1.83

IN: Continue with `CGCCAGCAAUAUUACGAGUG`
OUT: -2.41
